Documented SPOT peptide array binding signal intensity across a set of binders
Biological target: ScLsb4
Assay: SPOT peptide array binding signal intensity (averaged, normalized) (arbitrary units (background-subtracted, floor 0; scale differs between SH3 domains)); higher = stronger binding of the SH3 domain to the peptide
Measurement Kind: SPOT peptide array binding signal intensity

binder=KLSRGRYGLPLSSRP measurement_qualifier== endpoint_value=15
binder=MAMRPIPPLPTESEY measurement_qualifier== endpoint_value=1070
binder=NLPKRKPPKLQGPFS measurement_qualifier== endpoint_value=21.5
binder=PALPSLPPPPLLNVD measurement_qualifier=≤ endpoint_value=0
binder=MFLISPPASPPPEFD measurement_qualifier=≤ endpoint_value=0
binder=LKHGWKPLRPIKLIS measurement_qualifier== endpoint_value=4
binder=ISNFVPPNLPMRRFK measurement_qualifier== endpoint_value=2470
binder=ISPPASPPPEFDFSK measurement_qualifier=≤ endpoint_value=0
binder=NAGIRPKFILALNDE measurement_qualifier=≤ endpoint_value=0
binder=NNQRRKPLLLNIGDH measurement_qualifier=≤ endpoint_value=0
binder=MKRSRPSRSIPYTTP measurement_qualifier== endpoint_value=72
binder=RFKRHRLEFPFNESE measurement_qualifier=≤ endpoint_value=0
binder=DLFKPLPEPPTELGR measurement_qualifier== endpoint_value=10
binder=PSRRAPLQLPQLVNK measurement_qualifier=≤ endpoint_value=0
binder=KRRTSLFPWLHKPGI measurement_qualifier=≤ endpoint_value=0
binder=VTHRLRISIPGITGR measurement_qualifier== endpoint_value=42
binder=LPMNIQPDLPPRKIM measurement_qualifier== endpoint_value=3270
binder=GQYRRTIVIPRRFFT measurement_qualifier== endpoint_value=33
binder=PPPPPPPPPPLPQSL measurement_qualifier=≤ endpoint_value=0
binder=PLRRTVMSLPGNHDI measurement_qualifier== endpoint_value=60
binder=RTRRRPPPPPIPSTQ measurement_qualifier== endpoint_value=258
binder=PSTMDFPKLPSFQNS measurement_qualifier== endpoint_value=140
binder=GTIARPLFLVVLFFI measurement_qualifier=≤ endpoint_value=0
binder=NFKRLLPRDPSEKSS measurement_qualifier== endpoint_value=1
binder=KRKRRLPVSEDTNTK measurement_qualifier== endpoint_value=16
binder=LLGRKRPVMERVVDI measurement_qualifier== endpoint_value=27.5
binder=DTFLPPPPPPPSNFE measurement_qualifier=≤ endpoint_value=0
binder=NSMRPPLLIPAATTK measurement_qualifier== endpoint_value=208
binder=GSKSGPPPRPKKPST measurement_qualifier== endpoint_value=5
binder=GATNNAPTLPKRKNP measurement_qualifier== endpoint_value=2740
